// provenance: patent US8530183B2

experiment: Zn2+ titration of ZIMIR-C2 (fluorescence, NTA Zn2+ buffering system)
Assay type: binding
stated.conditions: FIG. 3C, emission at 515 nm; read-out: Zn^2+ binding dissociation constant
pKd: −log10 of the molar value.
measurement.name: pKd

chemical.structure: CCN(CC(=O)O)Cc1c2oc3c(CN(CC)CC(=O)O)c(O)ccc3c(-c3cc(NCCN(CCc4ccccn4)Cc4ccccn4)ccc3C(=O)O)c-2ccc1=O
result.value: 6.35
